Measured values drawn from patent US20200216532A1 for this set.

Assignment: determine reported % reduction for the given binders.
- Target: antibodies against ISV in serum sample IHUS#B09032311A3
- Method notes: ECL drug-displacement assay vs labelled SEQ ID NO:1
Express it in %; write the number only.

What does the record list as % reduction for SEQ ID NO: 26, Wildtype VHH + Q108L (VHH) VHH: EVQLVESGGGLVQAGGSLRLSCAASGRTFNNYAMGWFRRAPGKEREFVAAITRSGVRSGVSAIYGDSVKDRFTISRDNAKNTLYLQMNSLKPEDTAVYTCAASAIGSGALRRFEYDYSGQGTLVTVSS ? 31

Report % reduction for SEQ ID NO: 24, Wildtype VHH + A14P (VHH) VHH: EVQLVESGGGLVQPGGSLRLSCAASGRTFNNYAMGWFRRAPGKEREFVAAITRSGVRSGVSAIYGDSVKDRFTISRDNAKNTLYLQMNSLKPEDTAVYTCAASAIGSGALRRFEYDYSGQGTQVTVSS please. 91

Need % reduction, item SEQ ID NO: 30, Wildtype VHH + A14P + R39Q + K83R + T91Y + Q108L + 3 A's at C-terminus (A114 + A115 + A116) (VHH) VHH: EVQLVESGGGLVQPGGSLRLSCAASGRTFNNYAMGWFRQAPGKEREFVAAITRSGVRSGVSAIYGDSVKDRFTISRDNAKNTLYLQMNSLRPEDTAVYYCAASAIGSGALRRFEYDYSGQGTLVTVSS 13
